system: Rhipicephalus (Boophilus) microplus larvae (strain Parkhurst, resistant against synthetic pyrethroids); experiment: Rhipicephalus (Boophilus) microplus in-vitro contact test, larval cattle tick; format: in vivo; details: 5 μg/cm^2 (=500 g/ha), after 48 hours, read-out: efficacy (larvae dead or moribund)
Quick list: pest or weed control at 5 µg/cm2, 5 µg/cm2 per entry.
Parameter: pest or weed control at 5 µg/cm2, 5 µg/cm2 (%)

INSERT INTO measurements (compound, reading) VALUES
  ('Cc1nc([C@H](C)NC(=O)c2cc(OCC3CCOCC3)cc(C(F)(F)F)c2)n(-c2ccc(C#N)cn2)n1 [Example I-19]', 100),
  ('C[C@H](NC(=O)c1cccc(CC#N)c1)c1ncnn1-c1ccc(C#N)cn1 [Example I-2]', 80),
  ('CC(C#N)c1cccc(C(=O)N[C@@H](C)c2ncnn2-c2ccc(C#N)cn2)c1 (stereo partly shown) [Example I-1]', 90),
  ('CCN(C)C(=O)c1ccc(-n2nc(C)nc2[C@H](C)NC(=O)c2cc(Cl)cc(C(C)(C)C#N)c2)nc1 [Example I-52]', 90),
  ('C[C@H](NC(=O)c1cc(OCC=C(Cl)Cl)cc(C(F)(F)F)c1)c1ncnn1-c1ccc(C#N)cn1 [Example I-26]', 100),
  ('C[C@H](NC(=O)c1cc(Cl)cc(C(=O)C2CC2)c1)c1ncnn1-c1ccc(C#N)cn1 [Example I-35]', 100),
  ('C[C@H](NC(=O)c1cc(C(F)(F)F)cc(C(C)(C)C#N)c1)c1ncnn1-c1cnc(C#N)cn1 [Example I-58]', 100),
  ('C[C@H](NC(=O)c1cc(Cl)cc(Oc2ccc(F)cc2)c1)c1ncnn1-c1ccc(C#N)cn1 [Example I-9]', 90),
  ('C[C@H](NC(=O)c1cc(C(F)(F)F)cc(C(C)(C)C#N)c1)c1ncnn1-c1ccc(C#N)cn1 [Example I-42]', 100),
  ('CC(C)c1cc(C(=O)N[C@@H](C)c2ncnn2-c2ccc(C#N)cn2)cc(C(C)(C)C#N)c1 [Example I-48]', 100),
  ('C[C@H](NC(=O)c1cc(OC2CC2)cc(OC(F)(F)F)c1)c1nc(C2CC2)nn1-c1ncc(C#N)s1 [Example I-65]', 100),
  ('C[C@H](NC(=O)c1cc(OC(F)(F)F)cc(C(C)(C)C#N)c1)c1ncnn1-c1ccc(C#N)cn1 [Example I-45]', 100),
  ('C[C@H](NC(=O)c1cc(Cl)cc(OS(C)(=O)=O)c1)c1ncnn1-c1ccc(C#N)cn1 [Example I-46]', 100),
  ('C[C@H](NC(=O)c1cc(CC#N)cc(OC(F)(F)F)c1)c1ncnn1-c1ncc(C#N)s1 [Example I-54]', 90),
  ('C[C@H](NC(=O)c1cc(Br)cc(OC(C)(C)C#N)c1)c1ncnn1-c1ncc(C#N)s1 [Example I-60]', 100),
  ('C[C@H](NC(=O)c1cc(Cl)cc(C(C)(C)C#N)c1)c1ncnn1-c1ccc(C#N)cn1 [Example I-33]', 100);

* * *

tested on: Rhipicephalus (Boophilus) microplus larvae (strain Parkhurst, resistant against synthetic pyrethroids); experiment: Rhipicephalus (Boophilus) microplus in-vitro contact test, larval cattle tick; type: in vivo; details: 5 μg/cm^2 (=500 g/ha), after 48 hours, read-out: efficacy (larvae dead or moribund)
Parameter: pest or weed control at 5 µg/cm2, 5 µg/cm2 (%)

INSERT INTO measurements (compound_string, units_label, reading) VALUES
  ('C[C@H](NC(=O)c1cc(OCC(Cl)=C(Cl)Cl)cc(C(F)(F)F)c1)c1ncnn1-c1ncc(C#N)s1', '%', 100),
  ('C[C@H](NC(=O)c1cc(Br)cc(C(F)(F)C2CC2)c1)c1ncnn1-c1cnc(C#N)cn1', '%', 100),
  ('Cc1nc([C@H](C)NC(=O)c2cc(OC3CCOCC3)cc(C(F)(F)F)c2)n(-c2ccc(C#N)cn2)n1', '%', 100),
  ('Cc1cc(OC2COC2)cc(C(=O)N[C@@H](C)c2ncnn2-c2ccc(C#N)cn2)c1', '%', 90);
